test system: HOP-92; test: NCI tumour cell line growth inhibition, 48 h
The source made the active and inactive calls. Rule as the data show it: active = GI50 up to about 1.1 µM and inactive = higher.
Endpoint: GI50

>>> print(df.to_string())
                                    molecule  endpoint      recorded_result
 0  C=CCCC1(O)C(O)C(CO)O[C@H](O[C@@]2(CO)OC(CO)C(O)C2O)C1O (stereo partly specified)      GI50  > 100 µM (inactive)
 1  CN(C)N1C(=O)S/C(=C\c2ccc([N+](=O)[O-])cc2)C1=O      GI50  > 100 µM (inactive)
 2  NC(=O)NC(=O)C1CCCCC1C(=O)O (stereo unspecified)      GI50  > 100 µM (inactive)
 3  O=C1Nc2ccccc2C(=O)/C1=C/NC(=S)NCCc1ccccc1      GI50  > 100 µM (inactive)
 4  C/C(=N\Nc1ccccc1Br)c1cccc(/C(C)=N/Nc2ccccc2Br)n1      GI50   81.5 µM (inactive)
 5        CC12CC3CC(C1)CC(N=[N+]=[N-])(C3)C2      GI50  > 100 µM (inactive)
 6  Clc1ccc(/C=N/C23CC4CC(CC(C4)C2)C3)c(Cl)c1      GI50   > 10 µM (inactive)
 7    CN1CCOC1c1ccccc1O (stereo unspecified)      GI50  > 100 µM (inactive)
 8  O=C1C(=C2CCCC2)CCC1CN1CCCCC1 (stereo unspecified)      GI50   19.5 µM (inactive)
 9  CCOC(=O)C1S/C(=N\c2ccc(Cl)cc2Cl)N=C1C (stereo unspecified)      GI50   20.6 µM (inactive)
10  O=C(N/C(=C/c1ccc(Cl)cc1)c1nc2ccccc2c(=O)n1Nc1ccc([N+](=O)[O-])cc1[N+](=O)[O-])c1ccccc1      GI50  > 100 µM (inactive)

---

test system: NCI/ADR-RES; test: NCI tumour cell line growth inhibition, 48 h
Activity calls are given as the source filed them. No stated cut-off is given here; in the data, active = GI50 up to about 1.1 µM and inactive = higher.
Endpoint: GI50

>>> df
                                   compound       recorded_result
0  CC1(C)CC(=O)C(=CNc2nc(-c3ccccc3)cs2)C(=O)C1    34.4 µM (inactive)
1  N#Cc1c(-c2ccc([N+](=O)[O-])cc2)c(C#N)c(=O)n(NS(=O)(=O)c2ccccc2)c1O   > 100 µM (inactive)
2       O=c1cc(N2CCCC2)[nH]c(=O)n1-c1ccccc1   > 100 µM (inactive)
3  Cc1cc(C)c(/C=C2\C(=O)Nc3ccccc32)[nH]1 [SEMAXANIB]   > 100 µM (inactive)
4  COc1ccc(/C=C/C(=N/NC(=O)N/N=C(/C=C/c2ccc(OC)cc2)C(C)(C)CN2CCCCC2)C(C)(C)CN2CCCCC2)cc1    1.97 µM (inactive)
5    O=C(O)Cc1ccc(Nc2nc3ccccc3nc2C(=O)O)cc1   > 100 µM (inactive)
6  Nc1ncnc2c1nc(Cl)n2[C@@H]1O[C@@H]2COP(=O)(O)O[C@H]2[C@H]1O [TOCLADESINE]    6.67 µM (inactive)
7  CCCCCCCCCCCCOCCCOP(=O)([O-])OCC[N+](C)(C)C  > 81.1 µM (inactive)
8  CCOC(=O)C1=[N+]([O-])OC2=C(O)CCCC21 (centres undefined)   > 100 µM (inactive)
